Tested on: foxtail, giant (Setaria faberii)
Assay: Test A preemergence, giant foxtail
Type: in vivo
Conditions: 500 g ai/ha, 0 to 100 scale (0 no effect, 100 complete control)
Answer each item with its documented Plant response rating, Foxtail, Giant.

Past entries and their recorded results:
# Molecule, Plant response rating, Foxtail, Giant
rows = [
    ("O=C1NCC(c2cccc(OCC3CC3)c2)C1C(=O)Nc1cccc(F)c1F (stereo not shown) [Compound 12]", 90),
    ("CN1CC(c2cccc(Oc3ccc(F)cc3)c2)C(C(=O)Nc2ccccc2F)C1=O (single isomer, unassigned) [Compound 45]", 90),
    ("O=C1NCC(c2ccccc2Cn2ccc(C(F)(F)F)n2)C1C(=O)Nc1cccc(F)c1F (stereo not shown) [Compound 57]", 90),
]

Here are 4 molecules. What values of Plant response rating, Foxtail, Giant were reported for them?
1. O=C1NCC(c2cccc(Cn3cccn3)c2)C1C(=O)Nc1ccccc1Cl (stereo not shown) [Compound 29]
2. O=C1NCC(c2cccc(COc3ccccc3)c2)C1C(=O)Nc1ccc(F)c(F)c1F (stereo not shown) [Compound 17]
3. CN1CC(c2cccc(Oc3ccc(F)cn3)c2)C(C(=O)Nc2ccccc2F)C1=O (single isomer, unassigned) [Compound 60]
4. CN1CC(c2cccc(Oc3ncc(F)cn3)c2)C(C(=O)Nc2ccccc2F)C1=O (single isomer, unassigned) [Compound 36]

Key:
40
80
90
90

###

System: kochia (Kochia scoparia)
Assay: Test A preemergence, kochia
Type: in vivo
Conditions: 125 g ai/ha, 0 to 100 scale (0 no effect, 100 complete control)
Answer each item with its documented Plant response rating, Kochia.

Past entries and their recorded results:
# Molecule, Assayed System, Plant response rating, Kochia
measured = [
    ("O=C1NCC(c2cccc(Cn3ccc(C(F)(F)F)n3)c2)C1C(=O)Nc1ccc(F)c(F)c1F (centres unmarked)", "kochia (Kochia scoparia)", 0),
    ("O=C1NCC(c2cccc(Cn3cncn3)c2)C1C(=O)Nc1cccc(F)c1F (centres unmarked)", "kochia (Kochia scoparia)", 0),
    ("O=C1NCC(c2cccc(Cn3cccn3)c2)C1C(=O)Nc1cccc(F)c1F (centres unmarked)", "kochia (Kochia scoparia)", 0),
]

Here are 5 molecules. What values of Plant response rating, Kochia were reported for them?
1. O=C1NCC(c2cccc(Oc3ccc(C(F)(F)F)cn3)c2)C1C(=O)Nc1ccccc1F (single isomer, unassigned)
2. CN1CC(c2cccc(Oc3ccc(F)cn3)c2)C(C(=O)Nc2ccccc2F)C1=O (single isomer, unassigned)
3. O=C1NCC(c2cccc(Cn3ccc(C(F)(F)F)n3)c2)C1C(=O)Nc1ccc(F)cc1F (centres unmarked)
4. O=C1NCC(c2cccc(Oc3ncc(Cl)cn3)c2)C1C(=O)Nc1cccc(F)c1F (centres unmarked)
5. O=C1NCC(c2cccc(OCC3OCCO3)c2)C1C(=O)Nc1ccccc1Cl (centres unmarked)

Key:
1. 30
2. 70
3. 0
4. 0
5. 0

###

Answer each item with its documented Plant response rating, Pigweed.
Tested on: pigweed (Amaranthus retroflexus)
Assay: Test A preemergence, pigweed
Format: in vivo
Conditions: 125 g ai/ha, 0 to 100 scale (0 no effect, 100 complete control)
Answers are plain numbers.

Here are 6 compounds. What values of Plant response rating, Pigweed were reported for them?
1. O=C1NCC(c2cccc(Oc3ccc(C(F)(F)F)cn3)c2)C1C(=O)Nc1cccc(F)c1F (single isomer, unassigned)
2. O=C1NCC(c2cccc(Oc3ncc(F)cn3)c2)C1C(=O)Nc1ccccc1F (single isomer, unassigned)
3. O=C1NCC(c2cccc(COc3ccccc3)c2)C1C(=O)Nc1ccc(F)c(F)c1F (stereo not drawn)
4. CN1CC(c2cccc(Oc3ccc(F)cn3)c2)C(C(=O)Nc2cccc(F)c2C#N)C1=O (single isomer, unassigned)
5. O=C1NCC(c2ccccc2Cn2ccc(C(F)(F)F)n2)C1C(=O)Nc1ccccc1F (stereo not drawn)
6. O=C1NCC(c2cccc(Oc3ccccn3)c2)C1C(=O)Nc1ccc(F)c(F)c1F (stereo not drawn)

Key:
[0, 0, 0, 60, 0, 0]

Here are 5 compounds. What values of Plant response rating, Pigweed were reported for them?
1. O=C1NCC(c2cccc(Oc3ncc(Cl)cn3)c2)C1C(=O)Nc1ccccc1F (stereo not drawn)
2. O=C1NCC(c2cccc(OCC3OCCO3)c2)C1C(=O)Nc1ccccc1F (stereo not drawn)
3. O=C1NCC(c2cccc(OCC3OCCO3)c2)C1C(=O)Nc1ccccc1Cl (stereo not drawn)
4. CN1CC(c2cccc(OC(F)(F)C(F)OC(F)(F)F)c2)C(C(=O)Nc2ccccc2F)C1=O (stereo not drawn)
5. C[Si](C)(C)C#Cc1cccc(C2CNC(=O)C2C(=O)Nc2cccc(F)c2F)c1 (stereo not drawn)

Key:
1. 0
2. 0
3. 60
4. 70
5. 0
